Tested on: UO-31
Test Protocol: NCI tumour cell line growth inhibition, 48 h
Activity calls are given as the source filed them. Cut-off read from the data, not from the text of the source: active = GI50 up to about 1.1 µM and inactive = higher.
Measured Attribute: GI50

| Compound | Measured Attribute | Endpoint Value |
| --- | --- | --- |
| Brc1ccc(-c2ccc(-c3ccc(-c4ccc(Br)s4)s3)s2)s1 | GI50 | > 100 µM (inactive) |
| CCCCCC(CN1CCOCC1)C(=O)/C=C/c1ccccc1 (stereo not drawn) | GI50 | 6.61 µM (inactive) |

Here are 3 compounds. What values of GI50 were reported for them?
1. COC(=O)C1=C2CCC(=O)[C@@]2(C)C(OC(C)=O)C=CC1 (stereo partly drawn)
2. CCN(CCN(CC)C(=O)NC)C(=O)NC
3. COc1ccc(C(=O)c2[nH]c(Nc3ccc(Cl)cc3)c(C(=S)Nc3ccccc3)c2N)cc1

["> 100 µM (inactive)", "> 100 µM (inactive)", "> 100 µM (inactive)"]
